protocol details: Plasma pharmacokinetics of bimiralisib, non-compartmental analysis (LC-MS)
Type: in vivo, human
particulars: human, plasma, oral, 80 mg, Continuous Dosing, 80 mg, Day -3, 11 patients; read-out: AUC0–8 Geometric Mean (%CV)
observation type: AUC(0-t) (ng·h/mL)
Write down the numeric answer in ng·h/mL and omit the unit.

[in] State its AUC(0-t) for this compound: Nc1cc(C(F)(F)F)c(-c2nc(N3CCOCC3)nc(N3CCOCC3)n2)cn1
[out] 1530

====

protocol details: Plasma pharmacokinetics of bimiralisib, non-compartmental analysis (LC-MS)
Assay type: in vivo, human
particulars: human, plasma, oral, 100 mg, Continuous Dosing, 100 mg, Day 15, 2 patients; read-out: Cmax Mean (%CV)
observation type: Cmax (µg/mL)
Write down the numeric answer in µg/mL and omit the unit.

[in] State its Cmax for this compound: Nc1cc(C(F)(F)F)c(-c2nc(N3CCOCC3)nc(N3CCOCC3)n2)cn1
[out] 1.11

====

protocol details: Plasma pharmacokinetics of bimiralisib, non-compartmental analysis (LC-MS)
Assay type: in vivo, human
particulars: human, plasma, oral, 100 mg, Intermittent Dose Schedule B, 100 mg, Day 1, 7 patients; read-out: Tmax Median, (Range)
observation type: Tmax (h)
Write down the numeric answer in h and omit the unit.

[in] State its Tmax for this compound: Nc1cc(C(F)(F)F)c(-c2nc(N3CCOCC3)nc(N3CCOCC3)n2)cn1
[out] 2

====

protocol details: Plasma pharmacokinetics of bimiralisib, non-compartmental analysis (LC-MS)
Type: in vivo, human
particulars: human, plasma, oral, 200 mg, Intermittent Dose Schedule B, 200 mg, Day 1, 4 patients; read-out: Cmax Mean (%CV)
observation type: Cmax (ng/mL)
Write down the numeric answer in ng/mL and omit the unit.

[in] State its Cmax for this compound: Nc1cc(C(F)(F)F)c(-c2nc(N3CCOCC3)nc(N3CCOCC3)n2)cn1
[out] 734

====

protocol details: Plasma pharmacokinetics of bimiralisib, non-compartmental analysis (LC-MS)
Type: in vivo, human
particulars: human, plasma, oral, 200 mg, Intermittent Dose Schedule A, 200 mg, Day 8, n = 2; read-out: AUC0–24 Geometric Mean (%CV)
Description: Blood samples were collected to enable full PK profiling of bimiralisib. […] The pharmacokinetics of bimiralisib were determined by non-compartmental analysis. Area under the concentration vs. time curve (AUC) was calculated using the linear up log down trapezoidal method. Accumulation was calculated as the ratio of cycle 1 on Day 15 AUC0–8h versus cycle 1 on Day -3 AUC0–8h.
observation type: AUC(0-t) (ng·h/mL)
Write down the numeric answer in ng·h/mL and omit the unit.

[in] State its AUC(0-t) for this compound: Nc1cc(C(F)(F)F)c(-c2nc(N3CCOCC3)nc(N3CCOCC3)n2)cn1 [bimiralisib]
[out] 15900

====

protocol details: Plasma pharmacokinetics of bimiralisib, non-compartmental analysis (LC-MS)
Format: in vivo, human
particulars: human, plasma, oral, 140 mg, Intermittent Dose Schedule B, 140 mg, Day 8, 3 patients; read-out: AUC0–8 Geometric Mean (%CV)
observation type: AUC(0-t) (ng·h/mL)
Write down the numeric answer in ng·h/mL and omit the unit.

[in] State its AUC(0-t) for this compound: Nc1cc(C(F)(F)F)c(-c2nc(N3CCOCC3)nc(N3CCOCC3)n2)cn1 [bimiralisib]
[out] 5160

====

protocol details: Plasma pharmacokinetics of bimiralisib, non-compartmental analysis (LC-MS)
Type: in vivo, human
particulars: human, plasma, oral, 160 mg, Intermittent Dose Schedule A, 160 mg, Day -3, 3 patients; read-out: AUC0–24 Geometric Mean (%CV)
observation type: AUC(0-t) (ng·h/mL)
Write down the numeric answer in ng·h/mL and omit the unit.

[in] State its AUC(0-t) for this molecule: Nc1cc(C(F)(F)F)c(-c2nc(N3CCOCC3)nc(N3CCOCC3)n2)cn1 [bimiralisib]
[out] 5830

====

protocol details: Plasma pharmacokinetics of bimiralisib, non-compartmental analysis (LC-MS)
Assay type: in vivo, human
particulars: human, plasma, oral, 160 mg, Intermittent Dose Schedule B, 160 mg, Day 8, 3 patients; read-out: AUC0–8 Geometric Mean (%CV)
observation type: AUC(0-t) (ng·h/mL)
Write down the numeric answer in ng·h/mL and omit the unit.

[in] State its AUC(0-t) for this compound: Nc1cc(C(F)(F)F)c(-c2nc(N3CCOCC3)nc(N3CCOCC3)n2)cn1
[out] 1770

====

protocol details: Plasma pharmacokinetics of bimiralisib, non-compartmental analysis (LC-MS)
Assay type: in vivo, human
particulars: human, plasma, oral, 100 mg, Intermittent Dose Schedule A, 100 mg, Day -3, 4 patients; read-out: AUC0–8 Geometric Mean (%CV)
observation type: AUC(0-t)

[in] State its AUC(0-t) for this compound: Nc1cc(C(F)(F)F)c(-c2nc(N3CCOCC3)nc(N3CCOCC3)n2)cn1
[out] 1970 ng·h/mL

====

protocol details: Plasma pharmacokinetics of bimiralisib, non-compartmental analysis (LC-MS)
Assay type: in vivo, human
particulars: human, plasma, oral, 200 mg, Intermittent Dose Schedule A, 200 mg, Day 8, 4 patients; read-out: AUC0–8 Geometric Mean (%CV)
observation type: AUC(0-t) (ng·h/mL)
Write down the numeric answer in ng·h/mL and omit the unit.

[in] State its AUC(0-t) for this compound: Nc1cc(C(F)(F)F)c(-c2nc(N3CCOCC3)nc(N3CCOCC3)n2)cn1
[out] 4460

====

protocol details: Plasma pharmacokinetics of bimiralisib, non-compartmental analysis (LC-MS)
Assay type: in vivo, human
particulars: human, plasma, oral, 120 mg, Intermittent Dose Schedule B, 120 mg, Day 1, 3 patients; read-out: AUC0–24 Geometric Mean (%CV)
observation type: AUC(0-t)
Answer format: number, then unit.

[in] State its AUC(0-t) for this compound: Nc1cc(C(F)(F)F)c(-c2nc(N3CCOCC3)nc(N3CCOCC3)n2)cn1 [bimiralisib]
[out] 3340 ng·h/mL

====

protocol details: Plasma pharmacokinetics of bimiralisib, non-compartmental analysis (LC-MS)
Format: in vivo, human
particulars: human, plasma, oral, 100 mg, Intermittent Dose Schedule B, 100 mg, Day 8, 6 patients; read-out: Cmax Mean (%CV)
observation type: Cmax (ng/mL)
Write down the numeric answer in ng/mL and omit the unit.

[in] State its Cmax for this compound: Nc1cc(C(F)(F)F)c(-c2nc(N3CCOCC3)nc(N3CCOCC3)n2)cn1 [bimiralisib]
[out] 714

====

protocol details: Plasma pharmacokinetics of bimiralisib, non-compartmental analysis (LC-MS)
Format: in vivo, human
particulars: human, plasma, oral, 200 mg, Intermittent Dose Schedule A, 200 mg, Day -3, 4 patients; read-out: Tmax Median, (Range)
observation type: Tmax (h)
Write down the numeric answer in h and omit the unit.

[in] State its Tmax for this molecule: Nc1cc(C(F)(F)F)c(-c2nc(N3CCOCC3)nc(N3CCOCC3)n2)cn1 [bimiralisib]
[out] 2

====

protocol details: Plasma pharmacokinetics of bimiralisib, non-compartmental analysis (LC-MS)
Format: in vivo, human
particulars: human, plasma, oral, 80 mg, Intermittent Dose Schedule A, 80 mg, Day -3, 4 patients; read-out: Cmax Mean (%CV)
observation type: Cmax (ng/mL)
Write down the numeric answer in ng/mL and omit the unit.

[in] State its Cmax for this compound: Nc1cc(C(F)(F)F)c(-c2nc(N3CCOCC3)nc(N3CCOCC3)n2)cn1
[out] 410

====

protocol details: Plasma pharmacokinetics of bimiralisib, non-compartmental analysis (LC-MS)
Assay type: in vivo, human
particulars: human, plasma, oral, 100 mg, Intermittent Dose Schedule B, 100 mg, Day 1, 7 patients; read-out: AUC0–8 Geometric Mean (%CV)
observation type: AUC(0-t) (ng·h/mL)
Write down the numeric answer in ng·h/mL and omit the unit.

[in] State its AUC(0-t) for this compound: Nc1cc(C(F)(F)F)c(-c2nc(N3CCOCC3)nc(N3CCOCC3)n2)cn1 [bimiralisib]
[out] 1920

====

protocol details: Plasma pharmacokinetics of bimiralisib, non-compartmental analysis (LC-MS)
Type: in vivo, human
particulars: human, plasma, oral, 100 mg, Intermittent Dose Schedule A, 100 mg, Day -3, 4 patients; read-out: Tmax Median, (Range)
Procedure: Blood samples were collected to enable full PK profiling of bimiralisib. […] The pharmacokinetics of bimiralisib were determined by non-compartmental analysis. Area under the concentration vs. time curve (AUC) was calculated using the linear up log down trapezoidal method. Accumulation was calculated as the ratio of cycle 1 on Day 15 AUC0–8h versus cycle 1 on Day -3 AUC0–8h.
observation type: Tmax (h)
Write down the numeric answer in h and omit the unit.

[in] State its Tmax for this compound: Nc1cc(C(F)(F)F)c(-c2nc(N3CCOCC3)nc(N3CCOCC3)n2)cn1
[out] 1

====

protocol details: Plasma pharmacokinetics of bimiralisib, non-compartmental analysis (LC-MS)
Assay type: in vivo, human
particulars: human, plasma, oral, 200 mg, Intermittent Dose Schedule B, 200 mg, Day 1, 4 patients; read-out: Tmax Median, (Range)
observation type: Tmax (h)
Write down the numeric answer in h and omit the unit.

[in] State its Tmax for this compound: Nc1cc(C(F)(F)F)c(-c2nc(N3CCOCC3)nc(N3CCOCC3)n2)cn1
[out] 1.5
